Assignment: determine reported Tm for the given compounds.
Test system: Nucleic Acid
method description: Binding affinity to polydAdT DNA containing 100% AT assessed as middle of the peak at half height melting temperature at 1 uM by spectrophotometry analysis
Assay type: nucleic-acid assay
Give bare numbers, in °C.

// solved cases for Tm follow
[
  {
    "compound": "CN(C)CCC(NCCNc1ccnc2cc(Cl)ccc12)c1ccccc1 (centres undefined)",
    "measurement unit": "°C",
    "Tm": 47.4
  },
  {
    "compound": "CC(C)NCCNc1ccnc2cc(Cl)ccc12",
    "measurement unit": "°C",
    "Tm": 46.5
  },
  {
    "compound": "CCN(CC)CCCC(C)Nc1ccnc2cc(Cl)ccc12 (centres undefined)",
    "measurement unit": "°C",
    "Tm": 47
  }
]

Using known records, supply Tm for Clc1ccc2c(NCCNC(CCN3CCCCC3)c3ccccc3)ccnc2c1 (centres undefined)
46.5
